The values you see were collected from paper PMC8414367.

Each item that follows carries a reported viability at 24 h, 10 µM.
- EXPERIMENT NOTES: MTS viability assay
- Format: cell-based, human
- COND: human, HepaRG cells, vehicle = 100%
- Experimental: The potential cytotoxicity of 7-alkylated chenodeoxycholic acid derivatives were assessed in different human (HepG2, HepaRG and Huh7) and murine (AML12) hepatocyte-derived cell lines. For this purpose, hepatic cells were treated at increasing concentration for 24h and analyzed by MTS viability assay. Table S2. […]
OBSERVABLE: viability at 24 h, 10 µM (%)

>>> reported("C#C[C@@]1(O)C[C@@H]2C[C@H](O)CC[C@]2(C)C2CC[C@@]3(C)C(CC[C@@H]3[C@H](C)CCC(=O)O)C21 (stereo partly shown) [2e]")
92.9
>>> reported("CCC[C@@]1(O)C[C@@H]2C[C@H](O)CC[C@]2(C)C2CC[C@@]3(C)C(CC[C@@H]3[C@H](C)CCC(=O)O)C21 (stereo partly shown) [2f]")
89.4
>>> reported("CCCCCCCCC[C@@]1(O)C[C@@H]2C[C@H](O)CC[C@]2(C)C2CC[C@@]3(C)C(CC[C@@H]3[C@H](C)CCC(=O)O)C21 (stereo partly shown) [2k]")
71.6
>>> reported("C=CC[C@@]1(O)C[C@@H]2C[C@H](O)CC[C@]2(C)C2CC[C@@]3(C)C(CC[C@@H]3[C@H](C)CCC(=O)O)C21 (stereo partly shown) [2g]")
126
>>> reported("C[C@H](CCC(=O)O)[C@H]1CCC2C3C(CC[C@@]21C)[C@@]1(C)CC[C@@H](O)C[C@H]1C[C@@]3(C)O (stereo partly shown) [2b]")
120
>>> reported("CC(CCC(=O)O)C1CCC2C3C(CCC12C)C1(C)CCC(O)CC1CC3(O)C(C)C (stereo not shown) [2h]")
101
>>> reported("C=C[C@@]1(O)C[C@@H]2C[C@H](O)CC[C@]2(C)C2CC[C@@]3(C)C(CC[C@@H]3[C@H](C)CCC(=O)O)C21 (stereo partly shown) [2d]")
104
